Tested on: Bacillus subtilis ATCC 6633
MIC strictly under 2 µM means Y; at 2 µM or over means N.

INSERT INTO assay_data (test_smiles, category) VALUES
  ('CC(C)C[C@H](NC(=O)[C@H](CC(C)C)NC(=O)[C@H](Cc1c[nH]c2ccccc12)NC(=O)[C@H](CCCCN)NC(=O)[C@H](CC(C)C)NC(=O)[C@H](CC(C)C)NC(=O)[C@H](Cc1c[nH]c2ccccc12)NC(=O)[C@H](CCCCN)NC(=O)[C@@H](N)CC(C)C)C(N)=O', 'Y'),
  ('CC(C)C[C@H](NC(=O)[C@H](Cc1c[nH]c2ccccc12)NC(=O)CNC(=O)[C@H](CC(C)C)NC(=O)[C@@H](N)Cc1ccccc1)C(=O)N[C@@H](Cc1ccccc1)C(=O)N[C@@H](CCCCN)C(=O)N[C@@H](Cc1c[nH]c2ccccc12)C(=O)N[C@@H](C)C(=O)N[C@@H](CCCCN)C(=O)N[C@@H](CCCCN)C(N)=O', 'N'),
  ('CC(=O)N[C@@H](Cc1ccccc1)C(=O)N[C@@H](CCCCN)C(=O)N[C@@H](CCCCN)C(=O)N[C@@H](CC(C)C)C(=O)N[C@@H](CCCCN)C(=O)N[C@@H](CCCCN)C(=O)N[C@@H](CC(C)C)C(=O)N[C@@H](Cc1ccccc1)C(=O)N[C@@H](CO)C(=O)N[C@@H](CCCCN)C(=O)N[C@@H](CC(C)C)C(=O)N[C@@H](CCCCN)C(=O)N[C@@H](CC(N)=O)C(=O)N[C@@H](Cc1c[nH]c2ccccc12)C(=O)N[C@@H](Cc1c[nH]c2ccccc12)C(N)=O', 'Y'),
  ('CC[C@H](C)[C@H](NC(=O)[C@H](CCCNC(=N)N)NC(=O)CNC(=O)[C@H](CC(C)C)NC(=O)[C@H](Cc1ccccc1)NC(=O)[C@H](CCCCN)NC(=O)[C@H](CO)NC(=O)[C@H](Cc1ccccc1)NC(=O)[C@H](Cc1c[nH]c2ccccc12)NC(=O)[C@H](CCC(N)=O)NC(=O)[C@@H](NC(=O)[C@@H](N)Cc1ccccc1)C(C)C)C(=O)N[C@@H](CC(C)C)C(N)=O', 'N'),
  ('CC(C)C[C@H](NC(=O)[C@H](CC(C)C)NC(=O)[C@H](CCCCN)NC(=O)[C@H](CCCCN)NC(=O)[C@H](CC(C)C)NC(=O)[C@H](CC(C)C)NC(=O)[C@H](CCCCN)NC(=O)[C@H](CCCCN)NC(=O)[C@H](CC(C)C)NC(=O)[C@H](Cc1c[nH]c2ccccc12)NC(=O)[C@@H](N)CCCCN)C(N)=O', 'Y');

A record lists `CC[C@H](C)[C@H](NC(=O)CN)C(=O)N[C@@H](CC(C)C)C(=O)N[C@@H](CO)C(=O)N[C@H](C(=O)N[C@H](C(=O)N[C@@H](Cc1ccccc1)C(=O)N[C@@H](CCCCN)C(=O)N[C@@H](C)C(=O)NCC(=O)N[C@@H](CCCCN)C(=O)NCC(=O)N[C@H](C(=O)N[C@H](C(=O)N[C@H]1CSSC[C@@H](C(=O)O)NC(=O)[C@H](CC(C)C)NC(=O)CNC(=O)[C@H](CO)NC(=O)[C@H](CC(C)C)NC(=O)CNC1=O)C(C)C)[C@@H](C)CC)C(C)C)[C@@H](C)O` . Is its MIC below 2 µM?
N

hey, is MIC for `CC[C@H](C)[C@H](N)C(=O)N[C@@H](CC(C)C)C(=O)N[C@@H](CCCCN)C(=O)N[C@@H](CCCCN)C(=O)N[C@H](C(=O)N[C@@H](Cc1c[nH]c2ccccc12)C(=O)N[C@@H](CCC(=O)O)C(=O)NCC(=O)N[C@H](C(=O)N[C@@H](CCCCN)C(=O)N[C@@H](CO)C(=O)N[C@@H](CC(C)C)C(=O)N[C@@H](Cc1ccccc1)C(N)=O)[C@@H](C)CC)[C@@H](C)CC` lower than 2 µM or not?
Y

Source listed as DBAASP.
